measurement-notes: qHTS of pediatric cancer cell lines to identify multiple opportunities for drug repurposing: Primary screen for OHS-50 cells (AID 1347103); also: nearly all actives have a fitted effect of over 40% in size
reported-conditions: OHS-50 osteosarcoma viability, CellTiter-Glo luminescence, 48 h; series mostly up to 57.3 µM
Results filed as inconclusive are left out. Active and inactive are the calls of the source. Calls follow the shape of the dose curve; as a rule, active = well fitted cell-killing curve with a large enough effect; inconclusive = small, poorly fitted or top-dose-only effect; inactive = no such curve, though single readings can be large or run the other way.
Allowed answers: active, inactive

Here are 4 molecules together with their reported answers.
Nc1[nH]nc2nnc(-c3c(-c4ccccc4)nn4ccccc34)cc12	active
NC(=O)c1nnn(Cc2cc(Cl)c(C(=O)c3ccc(Cl)cc3)c(Cl)c2)c1N	active
COc1cc(N2CCN(C)CC2)ccc1Nc1nc(N)c(C(=O)c2c(Cl)cccc2Cl)s1	inactive
CCC(=O)OCC(=O)[C@@]1(OC(=O)CC)[C@@H](C)C[C@@H]2[C@H]3CCC4=CC(=O)C=C[C@]4(C)[C@@]3(F)[C@@H](O)C[C@@]21C	active

Here is the next item to consider.
Hey, what did the test say about CC(C)N(CCCNC(=O)Nc1ccc(C(C)(C)C)cc1)C[C@H]1O[C@@H](n2cc(Br)c3c(N)ncnc32)[C@H](O)[C@H]1O ?
active
